From: ChEMBL document CHEMBL1138649

- assay_details: Inhibitory concentration required to inhibit PDGFR kinase was determined
pIC50: −log10 of the molar value.
Outcome: Satisfied for pIC50 of at least 6; Not satisfied for anything lower.

Lookup: Determine whether measured pIC50 meets or exceeds 6 for `Cc1ccc(NC(=O)NCCCN(C)C)cc1Nc1nccc(-c2cccnc2)n1`
Found: Not satisfied

Lookup: Determine whether measured pIC50 meets or exceeds 6 for `Cc1ccc(NC(=O)Nc2ccc(N(C)C)cc2)cc1Nc1nccc(-c2cccnc2)n1`
Found: Not satisfied

Lookup: Determine whether measured pIC50 meets or exceeds 6 for `Cc1ccc(NC(=O)NCCCN2CCOCC2)cc1Nc1nccc(-c2cccnc2)n1`
Found: Satisfied

Lookup: Determine whether measured pIC50 meets or exceeds 6 for `Cc1ccc(NC(=O)Nc2ccccc2CN(C)C2CCCCC2)cc1Nc1nccc(-c2cccnc2)n1`
Found: Satisfied

Lookup: Determine whether measured pIC50 meets or exceeds 6 for `Cc1ccc(NC(=O)Nc2cccc3ncccc23)cc1Nc1nccc(-c2cccnc2)n1`
Found: Satisfied

Lookup: Determine whether measured pIC50 meets or exceeds 6 for `Cc1ccc(NC(=O)N2CCCCC2)cc1Nc1nccc(-c2cccnc2)n1`
Found: Satisfied

Lookup: Determine whether measured pIC50 meets or exceeds 6 for `Cc1ccc(NC(=O)NCCCn2ccnc2)cc1Nc1nccc(-c2cccnc2)n1`
Found: Not satisfied

Lookup: Determine whether measured pIC50 meets or exceeds 6 for `Cc1ccc(NC(=O)Nc2cccc(N(C)C)c2)cc1Nc1nccc(-c2cccnc2)n1`
Found: Satisfied

Lookup: Determine whether measured pIC50 meets or exceeds 6 for `Cc1ccc(NC(=O)Nc2cccc3[nH]ncc23)cc1Nc1nccc(-c2cccnc2)n1`
Found: Satisfied

Lookup: Determine whether measured pIC50 meets or exceeds 6 for `CCN(CC)c1ccc(NC(=O)Nc2ccc(C)c(Nc3nccc(-c4cccnc4)n3)c2)cc1`
Found: Not satisfied

Lookup: Determine whether measured pIC50 meets or exceeds 6 for `Cc1ccc(NC(=O)Nc2cccc(N3CCCC3)c2)cc1Nc1nccc(-c2cccnc2)n1`
Found: Not satisfied

Lookup: Determine whether measured pIC50 meets or exceeds 6 for `CCN(CC)c1cccc(NC(=O)Nc2ccc(C)c(Nc3nccc(-c4cccnc4)n3)c2)c1`
Found: Satisfied
